target: Amyloid-beta precursor protein (Homo sapiens); experiment: Inhibition of human amyloid beta (1 to 40) assessed as reduction in aggregation measured after 24 hrs by ThT fluorescence assay
Sequence (P05067 whole entry): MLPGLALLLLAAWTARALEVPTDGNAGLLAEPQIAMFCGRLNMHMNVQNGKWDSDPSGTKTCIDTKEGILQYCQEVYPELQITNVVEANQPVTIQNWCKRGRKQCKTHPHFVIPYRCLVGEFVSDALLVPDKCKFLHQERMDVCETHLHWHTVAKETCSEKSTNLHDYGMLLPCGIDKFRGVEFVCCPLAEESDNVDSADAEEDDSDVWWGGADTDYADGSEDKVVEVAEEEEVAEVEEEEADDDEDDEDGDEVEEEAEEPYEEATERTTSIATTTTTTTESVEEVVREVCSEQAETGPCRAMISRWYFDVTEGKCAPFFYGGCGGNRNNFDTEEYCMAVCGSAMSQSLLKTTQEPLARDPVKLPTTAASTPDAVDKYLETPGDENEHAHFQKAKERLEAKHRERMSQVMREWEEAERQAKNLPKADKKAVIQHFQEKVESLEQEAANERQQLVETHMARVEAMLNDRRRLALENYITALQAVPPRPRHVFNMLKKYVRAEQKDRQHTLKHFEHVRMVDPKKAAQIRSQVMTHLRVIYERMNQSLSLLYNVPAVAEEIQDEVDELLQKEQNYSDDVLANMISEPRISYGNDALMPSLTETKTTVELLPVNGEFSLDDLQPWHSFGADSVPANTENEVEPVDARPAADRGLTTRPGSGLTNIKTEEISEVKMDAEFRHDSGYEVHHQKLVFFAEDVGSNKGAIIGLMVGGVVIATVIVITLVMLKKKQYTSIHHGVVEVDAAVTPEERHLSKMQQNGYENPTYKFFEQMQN
pIC50: −log10 of the molar value.
assay.metric: pIC50

compound	measured.on	endpoint.value
COc1cc(O)c2c(=O)cc(-c3ccc(O)cc3)oc2c1-c1cc(-c2cc(O)c3c(=O)cc(O)cc-3o2)ccc1O [sotetsuflavone]	Amyloid-beta precursor protein (Homo sapiens)	< 4.30
COc1cc2oc(-c3ccc(OC)c(-c4c(OC)cc(O)c5c(=O)cc(-c6ccc(O)cc6)oc45)c3)cc(O)c-2c(=O)c1 [7-O-methyl-isoginkgetin]	Amyloid-beta precursor protein (Homo sapiens)	< 4.30
COc1ccc(-c2cc(=O)c3c(O)cc(O)c(-c4cc(-c5cc(O)c6c(=O)cc(OC)cc-6o5)ccc4OC)c3o2)cc1 [sciadopitisin]	Amyloid-beta precursor protein (Homo sapiens)	< 4.30
COc1ccc(-c2cc(O)c3c(=O)cc(O)cc-3o2)cc1-c1c(OC)cc(O)c2c(=O)cc(-c3ccc(O)cc3)oc12 [4',7''-di-O-methyl-amentoflavone]	Amyloid-beta precursor protein (Homo sapiens)	< 4.30
COc1ccc(-c2cc(=O)c3c(O)cc(OC)c(-c4cc(-c5cc(O)c6c(=O)cc(OC)cc-6o5)ccc4O)c3o2)cc1 [heveaflavone]	Amyloid-beta precursor protein (Homo sapiens)	< 4.30

Pending compound:
Q. Any idea what pIC50 was measured for COc1cc2oc(-c3ccc(O)c(-c4c(O)cc(O)c5c(=O)cc(-c6ccc(O)cc6)oc45)c3)cc(O)c-2c(=O)c1 [sequoiaflavone] ?
A. 5.31
